Molecular target: cloned human MC4R (Homo sapiens, UniProt P32245)
Construct: made in house; host or cells: Hi5 insect cells (baculovirus infection); membrane preparation
Sequence (P32245 whole entry): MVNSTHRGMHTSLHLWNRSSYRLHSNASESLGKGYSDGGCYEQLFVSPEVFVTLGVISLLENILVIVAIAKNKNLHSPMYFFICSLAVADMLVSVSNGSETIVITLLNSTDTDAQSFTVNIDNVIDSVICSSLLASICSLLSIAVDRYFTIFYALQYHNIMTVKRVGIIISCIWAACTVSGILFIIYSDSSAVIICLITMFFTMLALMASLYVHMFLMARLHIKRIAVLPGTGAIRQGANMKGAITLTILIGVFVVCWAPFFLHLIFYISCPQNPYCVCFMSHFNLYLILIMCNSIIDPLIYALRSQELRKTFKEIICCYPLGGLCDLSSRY
Test: Membrane binding assay: competitive inhibition of [125I]NDP-α-MSH binding
Conditions: read-out: MC4R IC50
Experimental: Hi5 cells are infected using the following protocol: Cells at a density of 1×10^6 cells/mL are spun down at 1000 rpm (Beckman GS-6KR centrifuge) for 10 minutes. Cells are resuspended in 10% of their original volume in a sterile 50 mL conical centrifuge tube wrapped with aluminum foil. […] Protein content is determined (Bradford, Bio-Rad Protein Assay). […] Dose-response curves are fitted by […] analyses and IC50 values are calculated using ExcelFit.
Provide the reported IC50 of each item.

Ask: Name the reported IC50 value associated with the compound N[C@@H](Cc1ccc(OCc2ccccc2)cc1)C(=O)N1CCN(Cc2cc3c(cc2[N+](=O)[O-])OCO3)CC1 [Example 154]
Result: > 3 µM

Ask: Name the reported IC50 value associated with the compound COc1cc(CN2CCN(C(=O)[C@@H](N)Cc3ccc(OCc4ccccc4)cc3)CC2)ccc1OCc1ccccc1 [Example 115]
Result: > 3 µM

Ask: Name the reported IC50 value associated with the compound N[C@@H](Cc1ccc(-c2cccc3ccccc23)cc1)C(=O)N1CCN(Cc2cccc(Cl)c2Cl)CC1 [Example 300]
Result: < 1.5 µM

Ask: Name the reported IC50 value associated with the compound N[C@@H](Cc1ccc(OCc2ccccc2)cc1)C(=O)N1CCCN(Cc2ccc(Cl)cc2Cl)CC1 [Example 52]
Result: > 3 µM

Next:
Ask: Name the reported IC50 value associated with the compound COc1ccc(CCCOc2ccc(C[C@H](N)C(=O)N3CCN(Cc4cccc(Cl)c4Cl)CC3)cc2)cc1 [Example 264]
Result: 1.5 to 3 µM

---

target: cloned human MC4R (Homo sapiens, UniProt P32245); construct: made in house; host or cells: Hi5 insect cells (baculovirus infection); membrane preparation; assay: Membrane binding assay: competitive inhibition of [125I]NDP-α-MSH binding; details: read-out: MC4R IC50
pIC50: −log10 of the molar value.
Provide the reported pIC50 of each item.

Ask: Name the reported pIC50 value associated with the molecule `CCCCCOc1ccc(CN2CCN(C(=O)[C@@H](N)Cc3ccc(OCc4ccccc4)cc3)CC2)cc1`
Result: > 5.82

Ask: Name the reported pIC50 value associated with the molecule `N[C@@H](Cc1ccc(OCc2ccc3c(c2)OCO3)cc1)C(=O)N1CCN(Cc2cccc(Cl)c2Cl)CC1`
Result: < 5.52

Ask: Name the reported pIC50 value associated with the molecule `N[C@@H](Cc1ccc(-c2ccc(Oc3ccccc3)cc2)cc1)C(=O)N1CCN(Cc2cccc(Cl)c2Cl)CC1`
Result: > 5.82

Consider the following items and state reported pIC50 for each.
1. N[C@@H](Cc1ccc(OCc2ccccc2)cc1)C(=O)N1CCCN(Cc2ccc3c(c2)OCCO3)CC1
2. N[C@@H](Cc1ccc(OCc2ccccc2)cc1)C(=O)N1CCN(Cc2cc(F)ccc2F)CC1
3. CCCCc1ccc(COc2ccc(C[C@H](N)C(=O)N3CCN(Cc4cccc(Cl)c4Cl)CC3)cc2)cc1
4. CC(COc1ccccc1)N1CCCN(C(=O)[C@@H](N)Cc2ccc(OCc3ccccc3)cc2)CC1 (stereo partly shown)
5. N[C@@H](Cc1ccc(OCc2ccccc2)cc1)C(=O)N1CCN(Cc2c(F)cccc2Cl)CC1

Result:
["< 5.52", "< 5.52", "> 5.82", "< 5.52", "< 5.52"]

---

Provide the reported inhibition at 10 µM of each item.
molecular target: cloned human MC4R (Homo sapiens, UniProt P32245); construct: made in house; host or cells: Hi5 insect cells (baculovirus infection); membrane preparation; test: Membrane binding assay: competitive inhibition of [125I]NDP-α-MSH binding; details: at 10 μM; [125I]NDP-α-MSH displacement; read-out: Displacement Rate (%) (at 10 μM)

Use these answered entries as a reference point.
Ask: Name the reported inhibition at 10 µM value associated with the compound CC(C)(C)c1cc(CN2CCCN(C(=O)[C@@H](N)Cc3ccc(OCc4ccccc4)cc3)CC2)cc(C(C)(C)C)c1O [Example 26]
Result: 71 to 90%

Ask: Name the reported inhibition at 10 µM value associated with the compound N[C@@H](Cc1ccc(OCc2ccccc2)cc1)C(=O)N1CCN(Cc2cccc(C(F)(F)F)c2)CC1 [Example 123]
Result: 71 to 90%

Ask: Name the reported inhibition at 10 µM value associated with the compound CC(C)(C)c1ccc(Oc2cccc(CN3CCN(C(=O)[C@@H](N)Cc4ccc(OCc5ccccc5)cc4)CC3)c2)cc1 [Example 80]
Result: 91 to 100%

Ask: Name the reported inhibition at 10 µM value associated with the compound N[C@@H](Cc1ccc(-c2ccc(Cl)c(Cl)c2)cc1)C(=O)N1CCN(Cc2cccc(Cl)c2Cl)CC1 [Example 294]
Result: 91 to 100%

Ask: Name the reported inhibition at 10 µM value associated with the compound N[C@@H](Cc1ccc(-c2ccc(-c3ccccc3)cc2)cc1)C(=O)N1CCN(Cc2cccc(Cl)c2Cl)CC1 [Example 314]
Result: 91 to 100%

Ask: Name the reported inhibition at 10 µM value associated with the compound N[C@@H](Cc1ccc(OCc2ccccc2)cc1)C(=O)N1CCCN(Cc2cccc3ccccc23)CC1 [Example 47]
Result: 35 to 70%

Ask: Name the reported inhibition at 10 µM value associated with the compound CCCCCOc1ccc(CN2CCCN(C(=O)[C@@H](N)Cc3ccc(OCc4ccccc4)cc3)CC2)cc1 [Example 32]
Result: 71 to 90%

Ask: Name the reported inhibition at 10 µM value associated with the compound COc1cccc(CCOc2ccc(C[C@H](N)C(=O)N3CCN(Cc4cccc(Cl)c4Cl)CC3)cc2)c1 [Example 243]
Result: 91 to 100%

Consider the following items and state reported inhibition at 10 µM for each.
1. COc1cc(CN2CCCN(C(=O)[C@@H](N)Cc3ccc(OCc4ccccc4)cc3)CC2)ccc1OCc1ccc([N+](=O)[O-])cc1 [Example 15]
2. CC(Cc1cccc(C(F)(F)F)c1)N1CCN(C(=O)[C@@H](N)Cc2ccc(OCc3ccccc3)cc2)CC1 (stereo partly shown) [Example 136]
3. Cc1ccsc1CN1CCCN(C(=O)[C@@H](N)Cc2ccc(OCc3ccccc3)cc2)CC1 [Example 48]
4. Cc1ccc(C)c(CN2CCCN(C(=O)[C@@H](N)Cc3ccc(OCc4ccccc4)cc3)CC2)c1 [Example 36]
5. Cc1ccsc1CN1CCN(C(=O)[C@@H](N)Cc2ccc(OCc3ccccc3)cc2)CC1 [Example 128]
6. O=C([C@H](Cc1ccc(OCc2ccccc2)cc1)NCCc1ccccc1)N1CCN(Cc2cccc(Cl)c2Cl)CC1 [Example 171]

Result:
1: 91 to 100%; 2: 35 to 70%; 3: 35 to 70%; 4: 71 to 90%; 5: 35 to 70%; 6: 71 to 90%

---

molecular target: cloned human MC4R (Homo sapiens); construct: made in house; host or cells: Hi5 insect cells (baculovirus infection); membrane preparation; assay: Membrane binding assay: competitive inhibition of [125I]NDP-α-MSH binding; settings: read-out: MC4R IC50
Provide the reported IC50 of each item.

Ask: Name the reported IC50 value associated with the molecule `N[C@@H](Cc1ccc(OCc2ccccc2)cc1)C(=O)N1CCCN(Cc2cn(Cc3ccccc3)c3ccccc23)CC1`
Result: < 1500 nM

Consider the following items and state reported IC50 for each.
1. COc1cc(CN2CCCN(C(=O)[C@@H](N)Cc3ccc(OCc4ccccc4)cc3)CC2)ccc1OCc1ccc([N+](=O)[O-])cc1
2. Cc1cccc(-c2ccc(C[C@H](N)C(=O)N3CCN(Cc4cccc(Cl)c4Cl)CC3)cc2)c1
3. N[C@@H](Cc1ccc(-c2cccc3c2Sc2ccccc2O3)cc1)C(=O)N1CCN(Cc2cccc(Cl)c2Cl)CC1
4. COc1ccc(CCC(C)N2CCN(C(=O)[C@@H](N)Cc3ccc(OCc4ccccc4)cc3)CC2)cc1 (stereo partly drawn)

Result:
1. 1500 to 3000 nM
2. 1500 to 3000 nM
3. < 1500 nM
4. > 3000 nM

Consider the following items and state reported IC50 for each.
1. N[C@@H](Cc1ccc(OCc2ccccc2)cc1)C(=O)N1CCN(Cc2c3ccccc3cc3ccccc23)CC1
2. CCN(CCOc1ccc(C[C@H](N)C(=O)N2CCN(Cc3cccc(Cl)c3Cl)CC2)cc1)c1cccc(C)c1
3. N[C@@H](Cc1ccc(OCc2ccccc2Cc2ccccc2)cc1)C(=O)N1CCN(Cc2cccc(Cl)c2Cl)CC1
4. CC(C)c1ccc(COc2ccc(C[C@H](N)C(=O)N3CCN(Cc4cccc(Cl)c4Cl)CC3)cc2)cc1
5. N[C@@H](Cc1ccc(-c2cccc(F)c2)cc1)C(=O)N1CCN(Cc2cccc(Cl)c2Cl)CC1

Result:
1. 1500 to 3000 nM
2. < 1500 nM
3. < 1500 nM
4. < 1500 nM
5. < 1500 nM

Consider the following items and state reported IC50 for each.
1. COc1cccc(-c2ccc(C[C@H](N)C(=O)N3CCN(Cc4cccc(Cl)c4Cl)CC3)cc2)c1
2. N[C@@H](Cc1ccc(-c2ccccc2Cl)cc1)C(=O)N1CCN(Cc2cccc(Cl)c2Cl)CC1
3. CCOc1ccccc1CN1CCCN(C(=O)[C@@H](N)Cc2ccc(OCc3ccccc3)cc2)CC1
4. N[C@@H](Cc1ccc(OCc2ccccc2)cc1)C(=O)N1CCN(Cc2ccc(-c3ccccc3)cc2)CC1
5. N[C@@H](Cc1ccc(OCc2c(F)c(F)c(F)c(F)c2F)cc1)C(=O)N1CCN(Cc2cccc(Cl)c2Cl)CC1
6. N[C@@H](Cc1ccc(OCc2ccc(OCc3ccccc3)cc2)cc1)C(=O)N1CCN(Cc2cccc(Cl)c2Cl)CC1
7. CN(C)CCCN[C@@H](Cc1ccc(OCc2ccccc2)cc1)C(=O)N1CCN(Cc2cccc(Cl)c2Cl)CC1
8. N[C@@H](Cc1ccc(OCCc2ccccc2OCc2ccccc2)cc1)C(=O)N1CCN(Cc2cccc(Cl)c2Cl)CC1

Result:
1. 1500 to 3000 nM
2. 1500 to 3000 nM
3. > 3000 nM
4. < 1500 nM
5. < 1500 nM
6. 1500 to 3000 nM
7. < 1500 nM
8. < 1500 nM
